EXPERIMENTAL SYSTEM: Recombinant human JAK3 catalytic domain (Homo sapiens (Human))
Sequence (P52333 781-1124): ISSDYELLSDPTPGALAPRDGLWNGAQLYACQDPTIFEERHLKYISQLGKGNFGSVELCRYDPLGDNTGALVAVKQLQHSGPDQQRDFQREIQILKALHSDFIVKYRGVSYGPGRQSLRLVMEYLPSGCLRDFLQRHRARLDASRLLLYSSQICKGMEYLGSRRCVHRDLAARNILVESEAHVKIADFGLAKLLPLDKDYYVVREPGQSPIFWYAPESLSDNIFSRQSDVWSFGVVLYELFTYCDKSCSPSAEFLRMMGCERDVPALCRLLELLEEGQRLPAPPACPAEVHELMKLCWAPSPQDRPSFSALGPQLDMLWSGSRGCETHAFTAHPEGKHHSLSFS
ASSAY PROCEDURE: JAK3 inhibition assay
Assay type: biochemical
pIC50: −log10 of the molar value.
READOUT: pIC50

> print(dat)
                                   molecule                       experimental.system  readout   value
1  N#Cc1ccc(COc2ccc(-c3cccc4nc(NC(=O)C5CC5)nn34)cc2)cn1 [Compound 176]  Recombinant human JAK3 catalytic domain (Homo sapiens (Human))    pIC50  > 7.00

###

Reported pIC50 is given for each of the following compounds.
EXPERIMENTAL SYSTEM: Recombinant human JAK2 catalytic domain (Homo sapiens (Human), UniProt O60674)
Sequence (O60674 808-1132): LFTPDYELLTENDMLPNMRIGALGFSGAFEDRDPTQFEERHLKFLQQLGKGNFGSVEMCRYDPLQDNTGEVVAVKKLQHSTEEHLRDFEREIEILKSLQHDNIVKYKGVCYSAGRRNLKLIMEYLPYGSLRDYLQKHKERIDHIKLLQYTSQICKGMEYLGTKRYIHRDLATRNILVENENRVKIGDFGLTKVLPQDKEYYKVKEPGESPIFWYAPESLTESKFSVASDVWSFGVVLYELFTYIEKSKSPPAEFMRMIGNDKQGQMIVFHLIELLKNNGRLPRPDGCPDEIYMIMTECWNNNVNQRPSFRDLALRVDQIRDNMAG
ASSAY PROCEDURE: JAK2 inhibition assay
Assay type: biochemical
ASSAY SETUP: semi-quantitative score
pIC50: −log10 of the molar value.
READOUT: pIC50

> print(dat)
                                   compound                       experimental.system  readout         value
1  O=C(Nc1nc2cccc(-c3ccc(OCc4ccccc4)cc3)n2n1)C1CC1 [Compound 12]  Recombinant human JAK2 catalytic domain (Homo sapiens (Human), UniProt O60674)    pIC50        > 7.00
2  O=C1CN(C(=O)c2ccc(-c3cccc4nc(NC(=O)C5CC5)nn34)cc2)CCN1 [Compound 277]  Recombinant human JAK2 catalytic domain (Homo sapiens (Human), UniProt O60674)    pIC50  6.30 to 7.00
3  O=C(Nc1nc2cccc(-c3ccc(OC4CCCC4)cc3)n2n1)C1CC1 [Compound 40]  Recombinant human JAK2 catalytic domain (Homo sapiens (Human), UniProt O60674)    pIC50        > 7.00
4  N#CCc1ccc(OCc2ccc(-c3cccc4nc(NC(=O)C5CC5)nn34)cc2)cc1 [Compound 301]  Recombinant human JAK2 catalytic domain (Homo sapiens (Human), UniProt O60674)    pIC50        > 7.00
5  O=C(COc1ccc(-c2cccc3nc(NC(=O)C4CC4)nn23)cc1)Nc1cccc(F)c1 [Compound 116]  Recombinant human JAK2 catalytic domain (Homo sapiens (Human), UniProt O60674)    pIC50  6.30 to 7.00
6  O=C1CN(Cc2ccc(-c3cccc4nc(NC(=O)C5CC5)nn34)cc2)CCN1 [Compound 311]  Recombinant human JAK2 catalytic domain (Homo sapiens (Human), UniProt O60674)    pIC50  6.30 to 7.00
7  O=C(Nc1nc2cccc(-c3ccc(CNc4cccnc4)cc3)n2n1)C1CC1 [Compound 223]  Recombinant human JAK2 catalytic domain (Homo sapiens (Human), UniProt O60674)    pIC50  6.00 to 6.30
8  O=C(Nc1nc2cccc(-c3ccc(CNc4ccccn4)cc3)n2n1)C1CC1 [Compound 244]  Recombinant human JAK2 catalytic domain (Homo sapiens (Human), UniProt O60674)    pIC50        > 7.00

###

ASSAY PROCEDURE: Caco2 permeability (bi-directional)
Type: in vitro ADME, human
ASSAY SETUP: human, pH 7.4; Caco-2, apical to basolateral; read-out: Papp (A2B)
READOUT: Papp A→B at 1 h, 10 µM (×10⁻⁶ cm/s)

> print(dat)
                         chemical.structure   unit.spec  value
1  O=C(NCCOc1ccccc1)c1ccc(-c2cccc3nc(NC(=O)C4CC4)nn23)cc1  ×10⁻⁶ cm/s   16.9
2  O=C(Nc1nc2cccc(-c3ccc(C(=O)N4CCC(F)(F)CC4)cc3)n2n1)C1CC1  ×10⁻⁶ cm/s     11
3  O=C(NCc1cccnc1)c1ccc(-c2cccc3nc(NC(=O)C4CC4)nn23)cc1  ×10⁻⁶ cm/s   0.45
4  O=C(Nc1nc2cccc(-c3ccc(CNc4ncccn4)cc3)n2n1)C1CC1  ×10⁻⁶ cm/s   25.9

###

ASSAY PROCEDURE: Microsomal stability, human liver microsomes
Format: in vitro ADME
ASSAY SETUP: percentage of compound remaining after 60 minutes, 3 μM compound
READOUT: Microsomal Stability Human (%)

> print(dat)
                                   molecule          value
1  CC(Oc1ccc(-c2cccc3nc(NC(=O)C4CC4)nn23)cc1)c1ccccn1 (stereo not shown)  ** (** 26-50)
2  O=C(Nc1nc2cccc(-c3ccc(C(=O)N4CCCC(C(F)(F)F)C4)cc3)n2n1)C1CC1 (stereo not shown)  ** (** 26-50)

###

ASSAY PROCEDURE: Microsomal stability, human liver microsomes
Format: in vitro ADME
ASSAY SETUP: percentage of compound remaining after 60 minutes, 3 μM compound
READOUT: Microsomal Stability Human (%)

> print(dat)
                                    compound                         readout               value
 1  CC(=O)Nc1nc2cccc(-c3ccc(OCc4ccccc4)cc3)n2n1  Microsomal Stability Human (%)     *** (*** 51-75)
 2  Cn1ccc(COc2ccc(-c3cccc4nc(NC(=O)C5CC5)nn34)cc2)n1  Microsomal Stability Human (%)     *** (*** 51-75)
 3  O=C(NCCCc1ccccc1)c1ccc(-c2cccc3nc(NC(=O)C4CC4)nn23)cc1  Microsomal Stability Human (%)          * (* 0-25)
 4  O=C(Cc1ccccc1)Nc1ccc(-c2cccc3nc(NC(=O)C4CC4)nn23)cc1  Microsomal Stability Human (%)          * (* 0-25)
 5  O=C(Nc1nc2cccc(-c3ccc(C(=O)N4CCC(F)(F)CC4)cc3)n2n1)C1CC1  Microsomal Stability Human (%)  **** (**** 76-100)
 6  CC1(C)CN(C(=O)c2ccc(-c3cccc4nc(NC(=O)C5CC5)nn34)cc2)C1  Microsomal Stability Human (%)  **** (**** 76-100)
 7  O=C(Nc1nc2cccc(-c3ccc(CN4CCN(CC(F)(F)F)CC4)cc3)n2n1)C1CC1  Microsomal Stability Human (%)     *** (*** 51-75)
 8  O=C(Nc1nc2cccc(-c3ccc(Oc4ccccc4)cc3)n2n1)C1CC1  Microsomal Stability Human (%)          * (* 0-25)
 9  O=C(Nc1nc2cccc(-c3ccc(CNc4ccc(Cl)cc4F)cc3)n2n1)C1CC1  Microsomal Stability Human (%)     *** (*** 51-75)
10  O=C(N[C@@H]1CCN(Cc2ccccc2)C1)c1ccc(-c2cccc3nc(NC(=O)C4CC4)nn23)cc1  Microsomal Stability Human (%)          * (* 0-25)
11  O=C(NCCOc1ccccc1)c1ccc(-c2cccc3nc(NC(=O)C4CC4)nn23)cc1  Microsomal Stability Human (%)       ** (** 26-50)
12  O=C(Nc1nc2cccc(-c3ccc(C(=O)N4CCCCC4)cc3)n2n1)C1CC1  Microsomal Stability Human (%)  **** (**** 76-100)
13  N#Cc1ccc(COC2CN(C(=O)c3ccc(-c4cccc5nc(NC(=O)C6CC6)nn45)cc3)C2)cc1  Microsomal Stability Human (%)     *** (*** 51-75)
14  COc1ccc(NC(=O)c2ccc(-c3cccc4nc(NC(=O)C5CC5)nn34)cc2)cn1  Microsomal Stability Human (%)          * (* 0-25)
15  O=C(Nc1ccncc1)c1ccc(-c2cccc3nc(NC(=O)C4CC4)nn23)cc1  Microsomal Stability Human (%)          * (* 0-25)
16  O=C(Nc1nc2cccc(-c3ccc(NS(=O)(=O)CCc4ccccc4)cc3)n2n1)C1CC1  Microsomal Stability Human (%)          * (* 0-25)
17  CN1CCN(C(=O)c2ccc(-c3cccc4nc(NC(=O)C5CC5)nn34)cc2)CC1  Microsomal Stability Human (%)          * (* 0-25)
18  CCCCN(CCCN1CCOCC1)C(=O)c1ccc(-c2cccc3nc(NC(=O)C4CC4)nn23)cc1  Microsomal Stability Human (%)       ** (** 26-50)
19  CN(C)CCN(Cc1ccccc1)C(=O)c1ccc(-c2cccc3nc(NC(=O)C4CC4)nn23)cc1  Microsomal Stability Human (%)     *** (*** 51-75)
20  O=C(Nc1nc2cccc(-c3ccc(C(=O)N4CCC(c5cc6ccccc6[nH]5)CC4)cc3)n2n1)C1CC1  Microsomal Stability Human (%)       ** (** 26-50)
21  O=C(Nc1nc2cccc(-c3ccc(C(=O)N4CCC(F)(F)C4)cc3)n2n1)C1CC1  Microsomal Stability Human (%)  **** (**** 76-100)
22  O=C(CCOc1ccccc1)Nc1ccc(-c2cccc3nc(NC(=O)C4CC4)nn23)cc1  Microsomal Stability Human (%)          * (* 0-25)
23  Cc1ccc(COc2ccc(-c3cccc4nc(NC(=O)C5CC5)nn34)cc2)cn1  Microsomal Stability Human (%)       ** (** 26-50)
24  O=C(Nc1nc2cccc(-c3ccc(NS(=O)(=O)CCc4cccc(F)c4)cc3)n2n1)C1CC1  Microsomal Stability Human (%)          * (* 0-25)
25  O=C(Nc1nc2cccc(-c3ccc(C(=O)N4CCCC(c5ccccc5)C4)cc3)n2n1)C1CC1 (centres unmarked)  Microsomal Stability Human (%)          * (* 0-25)
26  O=C(Nc1nc2cccc(-c3ccc(C(=O)N4CCc5ccccc5C4)cc3)n2n1)C1CC1  Microsomal Stability Human (%)          * (* 0-25)
27  O=C(NCCc1cnn(-c2ccccc2)c1)c1ccc(-c2cccc3nc(NC(=O)C4CC4)nn23)cc1  Microsomal Stability Human (%)          * (* 0-25)
28  O=C(Nc1nc2cccc(-c3ccc(S(=O)(=O)NC4CC4)cc3)n2n1)C1CC1  Microsomal Stability Human (%)     *** (*** 51-75)
29  Cc1noc(C)c1COc1ccc(-c2cccc3nc(NC(=O)C4CC4)nn23)cc1  Microsomal Stability Human (%)          * (* 0-25)
30  O=C(Nc1nc2cccc(-c3ccc(NCCc4ccccc4)nc3)n2n1)C1CC1  Microsomal Stability Human (%)          * (* 0-25)
31  O=C(Nc1nc2cccc(-c3ccc(CNc4ccccc4F)cc3)n2n1)C1CC1  Microsomal Stability Human (%)          * (* 0-25)
32  CN(C(=O)COc1ccc(-c2cccc3nc(NC(=O)C4CC4)nn23)cc1)c1ccccc1  Microsomal Stability Human (%)          * (* 0-25)

The measurements presented in this section are drawn from patent US10206907B2.
